# experimental.system: recombinant human Meningioma Expressed Antigen 5 (MGEA5), also referred to as O-GlcNAcase (OGA) (Homo sapiens)
# Construct: Full length OGA enzyme was purchased at OnGene (cat #TP322411); purchased OnGene (so in the source)
# Sequence (O60502 1-916): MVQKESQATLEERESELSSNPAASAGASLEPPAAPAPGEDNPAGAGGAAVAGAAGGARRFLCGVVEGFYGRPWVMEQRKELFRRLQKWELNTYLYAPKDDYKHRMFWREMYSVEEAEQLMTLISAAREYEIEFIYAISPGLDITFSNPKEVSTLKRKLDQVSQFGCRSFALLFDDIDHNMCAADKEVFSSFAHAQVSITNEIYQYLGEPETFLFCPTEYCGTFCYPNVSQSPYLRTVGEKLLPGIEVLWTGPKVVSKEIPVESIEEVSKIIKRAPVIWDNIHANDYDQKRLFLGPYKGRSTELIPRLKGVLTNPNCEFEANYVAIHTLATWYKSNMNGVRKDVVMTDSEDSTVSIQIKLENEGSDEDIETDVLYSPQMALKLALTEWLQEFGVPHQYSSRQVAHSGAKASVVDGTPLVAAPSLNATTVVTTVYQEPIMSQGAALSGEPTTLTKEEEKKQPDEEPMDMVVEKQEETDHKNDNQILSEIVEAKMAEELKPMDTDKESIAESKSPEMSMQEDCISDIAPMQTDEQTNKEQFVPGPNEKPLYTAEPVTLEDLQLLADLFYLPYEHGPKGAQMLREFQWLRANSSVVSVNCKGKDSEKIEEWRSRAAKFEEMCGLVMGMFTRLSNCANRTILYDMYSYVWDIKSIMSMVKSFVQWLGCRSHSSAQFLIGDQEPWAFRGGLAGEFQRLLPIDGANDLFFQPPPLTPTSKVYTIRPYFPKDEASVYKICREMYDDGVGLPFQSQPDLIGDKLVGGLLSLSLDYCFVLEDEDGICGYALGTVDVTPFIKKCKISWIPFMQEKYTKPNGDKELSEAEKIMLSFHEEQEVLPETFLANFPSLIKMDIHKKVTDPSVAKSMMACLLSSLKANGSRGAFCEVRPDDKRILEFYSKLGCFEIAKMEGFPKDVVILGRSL
# measurement.description: OGA biochemical assay (inhibition of FM-GlcNAc hydrolysis, fluorescence)
# condition.description: maximal effect
measure.name: Enzymatic Emax (%)

COc1cc(NC[C@H]2CCCN(C(C)c3ccc4c(n3)OCCO4)C2)cc(C)n1 (single isomer, unassigned)
101
Cc1cc(OC[C@H]2CCCN(C(C)c3ccc4c(n3)OCCO4)C2)nc(C)n1 (single isomer, unassigned)
100
Cc1cc(C[C@H]2CCCN(C(C)c3ccc4c(n3)OCC(=O)N4)C2)cc(C)n1 (single isomer, unassigned) [Product 61]
102
Cc1cc(OC[C@H]2CCCN(C(C)c3cnc4c(c3)OCCN4)C2)cc(C)n1 (stereo partly shown)
100
Cc1cc(NCC2CCCN(C(C)c3ccc4c(n3)OCCO4)C2)cc(C(F)(F)F)n1 (single isomer, unassigned) [Product 34]
100
Cc1cc(NCC2CCCN(C(C)c3ccc4c(n3)OCCO4)C2)cc(C(F)(F)F)n1 (single isomer, unassigned) [Product 35]
88
COc1cc(NC[C@@H]2CCCN(C(C)c3ccc4c(n3)OCCO4)C2)cc(C)n1 (single isomer, unassigned)
97

###

# experimental.system: recombinant human Meningioma Expressed Antigen 5 (MGEA5), also referred to as O-GlcNAcase (OGA) (Homo sapiens, UniProt O60502)
# Construct: Full length OGA enzyme was purchased at OnGene (cat #TP322411); purchased OnGene (so in the source)
# Sequence (O60502 1-916): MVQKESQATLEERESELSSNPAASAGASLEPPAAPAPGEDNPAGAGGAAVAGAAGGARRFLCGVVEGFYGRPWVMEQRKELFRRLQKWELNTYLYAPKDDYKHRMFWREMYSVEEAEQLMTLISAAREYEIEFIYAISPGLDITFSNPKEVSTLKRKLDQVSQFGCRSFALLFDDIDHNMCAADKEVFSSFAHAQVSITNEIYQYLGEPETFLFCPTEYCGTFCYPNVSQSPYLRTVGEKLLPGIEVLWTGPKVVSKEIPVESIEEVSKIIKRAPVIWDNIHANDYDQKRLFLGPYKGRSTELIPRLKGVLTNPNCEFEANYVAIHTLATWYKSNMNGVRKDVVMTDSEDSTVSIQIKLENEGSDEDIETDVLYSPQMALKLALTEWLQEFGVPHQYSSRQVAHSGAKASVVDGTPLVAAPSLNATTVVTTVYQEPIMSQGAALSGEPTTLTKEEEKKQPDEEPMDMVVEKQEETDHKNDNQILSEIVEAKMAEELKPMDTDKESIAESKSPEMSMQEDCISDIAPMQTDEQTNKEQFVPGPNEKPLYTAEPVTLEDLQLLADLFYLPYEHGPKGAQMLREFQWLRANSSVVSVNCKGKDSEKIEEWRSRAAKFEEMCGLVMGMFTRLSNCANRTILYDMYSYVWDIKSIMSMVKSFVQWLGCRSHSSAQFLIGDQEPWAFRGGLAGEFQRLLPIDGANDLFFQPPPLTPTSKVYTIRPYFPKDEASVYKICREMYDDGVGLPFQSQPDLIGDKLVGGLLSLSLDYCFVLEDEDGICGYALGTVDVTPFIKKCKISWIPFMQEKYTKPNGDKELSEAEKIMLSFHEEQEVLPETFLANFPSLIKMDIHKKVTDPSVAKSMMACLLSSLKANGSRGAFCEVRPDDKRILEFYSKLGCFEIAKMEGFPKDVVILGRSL
# measurement.description: OGA biochemical assay (inhibition of FM-GlcNAc hydrolysis, fluorescence)
# condition.description: read-out: Enzymatic hOGA, pIC50 (converted)
measure.name: IC50 (nM)

I: Cc1cc(OC[C@H]2CCCN([C@@H](C)c3ccc4c(n3)OCCO4)C2)cc(C)n1 (single isomer, unassigned)
II: Cc1cc([C@H]2CCCN([C@H](C)c3ccc4c(c3)OCC4)C2)cc(C)n1
III: Cc1cc(OC[C@H]2CCCN(C(C)c3ccc4c(n3)OCCO4)C2)cc(C)n1 (mixture of isomers) [Product 19]
IV: COc1cc(OC[C@H]2CCCN(C(C)c3ccc4c(n3)OCCO4)C2)cc(C)n1 (single isomer, unassigned)
Let's sort these by IC50, smallest first. Go ahead? List labels; respect the requested ordering.
III, II, IV, I

1: Cc1cc([C@@H]2CCCN([C@@H](C)c3cc4c(cc3F)OCCO4)C2)cc(C(F)(F)F)n1 (single isomer, unassigned)
2: Cc1cc(C[C@H]2CCCN(Cc3ccc4c(n3)OCCO4)C2)cc(C)n1
3: Cc1cc(C2CCCN(C(C)c3nc4c(cc3F)OCCO4)C2)cc(C(F)F)n1 (stereo not drawn)
Ascending by IC50, please: list the compounds accordingly. List labels; respect the requested ordering.
3, 2, 1

1: Cc1cc(CO[C@H]2CCCN(C(C)c3nc4c(cc3F)OCCO4)C2)cc(C)n1 (single isomer, unassigned) [Product 169]
2: COc1cc(N[C@H]2CCCN(C(C)c3ccc4c(n3)OCCO4)C2)cc(C)n1 (stereo partly drawn)
Hi, I'm comparing 1 with 2 and wondering which one has the bigger number for IC50. Any idea? Use the label to indicate which entry you chose.
1

###

# experimental.system: OGA (Homo sapiens, UniProt O60502)
# Construct: endogenous in cells; host or cells: HEK293 cells inducible for P301L mutant human Tau (2N4R)
# Sequence (O60502 1-916): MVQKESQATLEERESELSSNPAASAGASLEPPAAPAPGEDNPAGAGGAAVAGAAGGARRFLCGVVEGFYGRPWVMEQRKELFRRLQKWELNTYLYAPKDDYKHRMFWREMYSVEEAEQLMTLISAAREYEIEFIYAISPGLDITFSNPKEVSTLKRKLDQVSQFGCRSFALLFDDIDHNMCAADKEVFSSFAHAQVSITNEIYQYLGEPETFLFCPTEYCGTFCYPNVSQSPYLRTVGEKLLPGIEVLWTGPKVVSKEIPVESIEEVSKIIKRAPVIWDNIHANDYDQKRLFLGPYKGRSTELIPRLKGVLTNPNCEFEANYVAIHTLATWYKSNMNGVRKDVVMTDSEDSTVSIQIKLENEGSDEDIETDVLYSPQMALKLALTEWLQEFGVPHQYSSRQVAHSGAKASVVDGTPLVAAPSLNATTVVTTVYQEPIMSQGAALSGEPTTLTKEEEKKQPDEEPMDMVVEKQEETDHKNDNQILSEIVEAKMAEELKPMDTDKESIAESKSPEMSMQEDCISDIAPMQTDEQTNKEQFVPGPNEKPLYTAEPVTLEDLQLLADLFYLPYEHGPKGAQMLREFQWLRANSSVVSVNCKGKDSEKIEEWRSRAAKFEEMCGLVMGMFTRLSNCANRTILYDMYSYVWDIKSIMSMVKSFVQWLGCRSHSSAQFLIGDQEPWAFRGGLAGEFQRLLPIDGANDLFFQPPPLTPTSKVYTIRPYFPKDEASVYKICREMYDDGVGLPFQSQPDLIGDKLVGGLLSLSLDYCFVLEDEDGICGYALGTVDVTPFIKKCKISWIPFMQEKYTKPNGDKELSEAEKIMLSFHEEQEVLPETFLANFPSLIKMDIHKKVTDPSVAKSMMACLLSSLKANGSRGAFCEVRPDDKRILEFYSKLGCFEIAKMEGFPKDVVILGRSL
# measurement.description: OGA cellular assay (ICC detection of O-GlcNAcylated proteins in HEK293 cells inducible for P301L mutant human Tau)
# Format: cell-based
# condition.description: HEK293 cells inducible for P301L mutant human Tau, 6 hours incubation; read-out: Cellular hOGA; pEC50 (converted)
# Experimental: HEK293 cells inducible for P301L mutant human Tau (isoform 2N4R) were established at Janssen. Thiamet-G was used for both plate validation (high control) and as reference compound (reference EC50 assay validation). OGA inhibition is evaluated through the immunocytochemical (ICC) detection of O-GlcNAcylated proteins by the use of a monoclonal antibody (CTD110.6; Cell Signaling, #9875) detecting 0-GlcNAcylated residues as previously described (Dorfmueller et al. 2010 Chemistry & biology, 17:1250). […]
measure.name: EC50 (nM)

Please review the entries below; each comes with its answer.
Cc1cc(C2CCCN(C(C)c3nc4c(cc3F)CCO4)C2)cc(C)n1 (centres unmarked) [Product 148]
10
Cc1cc(NCC2CCCN(C(C)c3cc4c(cc3F)OCCO4)C2)cc(C(F)(F)F)n1 (centres unmarked) [Product 99]
25.1

P: COc1cc(NC[C@H]2CCCN(C(C)c3ccc4c(n3)OCCO4)C2)cc(C)n1 (single isomer, unassigned) [Product 26]
Q: COc1cc(OC[C@H]2CCCN([C@H](C)c3ccc4c(n3)OCCO4)C2)cc(C)n1 (racemic) [Product 110]
Hi, I'm comparing P with Q and wondering which one has the bigger number for EC50. Any idea? Use the label to indicate which entry you chose.
Q
(Q: 316 nM, P: 5.01 nM)
